Provenance of the data: patent US20040192888A1

testDescription: Dissolution comparison of Nα-Nsc-amino acids and Nα-Fmoc-amino acids
Format: physicochemical
Parameters: key: ◯: dissolution; Δ: partial dissolution; X: no dissolution
particulars: Nsc-amino acid, 100 mg in 1 ml dichloromethane, stirring 5 minutes
parameterMeasured: Dissolved state, Nsc, column A

These solved cases illustrate the format of a correct answer.
[
  {
    "compound": "CC(C)(C)OCC(NC(=O)OCCS(=O)(=O)c1ccc([N+](=O)[O-])cc1)C(=O)O (stereo not shown)",
    "reported": "◯"
  },
  {
    "compound": "Cc1c(C)c(S(=O)(=O)N=C(N)NCCCC(NC(=O)OCCS(=O)(=O)c2ccc([N+](=O)[O-])cc2)C(=O)O)c(C)c2c1OC(C)(C)C2 (stereo not shown)",
    "reported": "◯"
  },
  {
    "compound": "CC(C)(C)OC(=O)NCCCCC(NC(=O)OCCS(=O)(=O)c1ccc([N+](=O)[O-])cc1)C(=O)O (stereo not shown)",
    "reported": "◯"
  },
  {
    "compound": "CC(OC(C)(C)C)C(NC(=O)OCCS(=O)(=O)c1ccc([N+](=O)[O-])cc1)C(=O)O (stereo not shown)",
    "reported": "◯"
  },
  {
    "compound": "CC(C)CC(NC(=O)OCCS(=O)(=O)c1ccc([N+](=O)[O-])cc1)C(=O)O (stereo not shown)",
    "reported": "X"
  }
]

## Task Entry O=C(N[C@@H](Cc1ccccc1)C(=O)O)OCCS(=O)(=O)c1ccc([N+](=O)[O-])cc1 has what Dissolved state, Nsc, column A?
## Result X

## Task Try the compound O=C(CC(NC(=O)OCCS(=O)(=O)c1ccc([N+](=O)[O-])cc1)C(=O)O)NC(c1ccccc1)(c1ccccc1)c1ccccc1 (stereo not shown)
## Result X
